Values compiled from patent US11096910B2.

assay: Plasma pharmacokinetics after single intravenous and oral administration; design: species or system male C57BL/6 mice; settings: male, C57BL/6, mouse, in vivo, po, 8 mg/kg
readoutType: Tmax (min)

>>> datavalue("CNC(=O)C(=O)NCCCC/C=C\\CCCCCCCOCC(=O)O")
18

###

assay: Plasma pharmacokinetics after single intravenous and oral administration; design: species or system male C57BL/6 mice; conditions: male, C57BL/6, mouse, in vivo, iv, 2 mg/kg
readoutType: bioavailability (%)

>>> datavalue("CNC(=O)C(=O)NCCCC/C=C\\CCCCCCCOCC(=O)O")
100
